Organism: Bos taurus
Experiment: Activation of full-length myosin ATPase activity in bovine Cardiomyofibril in presence of CaCl2 and ATP by HTS assay
Type: tissue-based
The compounds listed here are annotated with their EC40.

entry.smiles	EC40
O=c1[nH]c(=O)c2cc(S(=O)(=O)Nc3ccccc3)ccc2[nH]1	> 39 µM
CN(c1ccc(-c2ccccc2)cc1)S(=O)(=O)c1ccc2[nH]c(=O)[nH]c(=O)c2c1	> 39 µM
O=c1[nH]c(=O)c2cc(S(=O)(=O)Nc3cnc(-c4ccccc4)nc3)ccc2[nH]1	> 39 µM

Exam item: Read the entry `C[C@H]1CCCN(c2ccc(NS(=O)(=O)c3ccc4c(c3)c(=O)[nH]c(=O)n4C)cn2)C1` and write its reported EC40.
Marked response: > 33 µM

Exam item: Determine its reported EC40: `Cn1c(=O)[nH]c(=O)c2cc(S(=O)(=O)Nc3ccc(N4CCCCC4)nc3)ccc21`
Marked response: > 30 µM
